Tested on: Escherichia coli
TEST METHOD NOTES: Inhibition of N-terminal His-tagged Escherichia coli beta-glucuronidase expressed in Escherichia coli BL21 (DE3) assessed as residual activity using pNPG as substrate at 10 uM preincubated for 30 mins followed by substrate addition measured after 1 hr relative to control
ATTRIBUTE MEASURED: Activity (%)

Use the examples below as a reference point.
smiles_str=CCOC(=O)CN1C(=O)S/C(=C/c2ccc3cc(F)ccc3n2)C1=O system="Escherichia coli" readout_unit=% value_measured=111
smiles_str=CN(C)CCCN1C(=O)S/C(=C/c2ccc3cc(F)ccc3n2)C1=O system="Escherichia coli" readout_unit=% value_measured=112
smiles_str=Nc1n[nH]c2c1c(O)nc1ccccc12 system="Escherichia coli" readout_unit=% value_measured=99
smiles_str=Nc1n[nH]c2c1c(Nc1ccc(C(=O)O)cc1)nc1ccccc12 system="Escherichia coli" readout_unit=% value_measured=19

A. O=C1S/C(=C/c2ccc3cc(F)ccc3n2)C(=O)N1CCN1CCCC1
B. CC(=O)c1ccc(Nc2nc3ccccc3c3[nH]nc(N)c23)cc1
When their Activity values are compared, which is larger, A or B ? Bench note: the answer is the label of the chosen record.
A
(A: 99.2%, B: 6%)
